- Tested on: NCI-H1703
- Experimental Protocol: relative viability (nuclei count vs DMSO), 5 days (fraction); higher = more cells survive
- Study Conditions: first compound 0.02 µM
Parameter: relative viability
Give bare numbers.

Here are 2 compounds together with their reported answers.
Compound	Assayed Target	relative viability
CN1CCN(CCOc2cc(OC3CCOCC3)c3c(Nc4c(Cl)ccc5c4OCO5)ncnc3c2)CC1 [Saracatinib] + CC(C)C[C@H](NC(=O)[C@H](Cc1ccccc1)NC(=O)c1cnccn1)B(O)O [Bortezomib] (partner 0.002 µM)	NCI-H1703	0.304
CN1CCN(CCOc2cc(OC3CCOCC3)c3c(Nc4c(Cl)ccc5c4OCO5)ncnc3c2)CC1 [Saracatinib] + CC1(C)CCC(c2ccc(Cl)cc2)=C(CN2CCN(c3ccc(C(=O)NS(=O)(=O)c4ccc(N[C@H](CCN5CCOCC5)CSc5ccccc5)c(S(=O)(=O)C(F)(F)F)c4)cc3)CC2)C1 [Navitoclax] (partner 0.5 µM)	NCI-H1703	1.09

In the following, a different compound is considered.
Exercise: Please look up its relative viability: CN1CCN(CCOc2cc(OC3CCOCC3)c3c(Nc4c(Cl)ccc5c4OCO5)ncnc3c2)CC1 [Saracatinib] + Cc1nc(NC(=O)N2CCC[C@H]2C(N)=O)sc1-c1ccnc(C(C)(C)C(F)(F)F)c1 [Alpelisib] (partner 2 µM)
Key: 0.321

Provenance of the data: the supplement of paper PMC10307832
